Test: chemical genetic growth profiling, strain panel (AID 1159580);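 also: tested at 20 µM; growth read once vehicle control cultures reached saturation at 30 °C; 1 = growth at the plate median or of vehicle wells; lower values mean less growth of the strain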
Details: S. cerevisiae deletion strains, growth OD, locus YOR184W, strain ser1, hits give low values
Hit rate of the full screen: of about 5,500 compounds, about 2,000 (36%) were called active. Not shown: some 18% with an inconclusive outcome. Some of the results follow.
measured-property: normalized growth
Lab note: record just the number, no unit beside it.

Example entries begin here.
molecule	measured-property	measured-number
Nc1ncnc2nc[nH]c12	normalized growth	0.708
OCCN1CCN(CCCN2c3ccccc3Sc3ccc(Cl)cc32)CC1	normalized growth	0.985
c1coc(CNc2ncnc3nc[nH]c23)c1	normalized growth	0.997
CCCCC/C=C\C/C=C\C/C=C\C/C=C\CCCC(=O)O	normalized growth	0.895
O=c1[nH]cnc2nc[nH]c12	normalized growth	0.98
NCCS	normalized growth	0.999
N#Cc1ccc2c(c1)N(CCCN1CCC(O)CC1)c1ccccc1S2	normalized growth	1.03
CN1CCN(CCCN2c3ccccc3Sc3ccc(Cl)cc32)CC1	normalized growth	0.248
CC1=C2[C@](C)(C=CC1=O)C[C@H](O)[C@H]1[C@H](C)C(=O)O[C@]21C	normalized growth	1.04
C[C@]12CCC3C(CC[C@H]4C[C@@H](Cl)CC[C@]34C)C1CCC2=O (some centres not stated)	normalized growth	0.733

What value of normalized growth has been recorded for this entry: CCS(=O)(=O)CCn1c([N+](=O)[O-])cnc1C
1.07

Okay, and O=c1n(CCCN2CCN(c3cccc(Cl)c3)CC2)nc2ccccn12 ?
0.992

* * *

Experiment: chemical genetic growth profiling, strain panel (AID 1159580)
Conditions: S. cerevisiae deletion strains, growth OD, strain wtn01
About 2,000 (36%) of roughly 5,500 compounds were called active. Inconclusive results (about 18%) are left out. Rule as the data show it: active = normalized growth mostly below about 0.91 (no sharp cut-off); inconclusive = no clear call, values can overlap the other calls; inactive = mostly above about 0.92. The list shows a part of the results.
Assign a class; possible classes are active, inactive

Recorded test call requested for O=c1ccc2cc(O[C@@H]3O[C@H](CO)[C@@H](O)[C@H](O)[C@H]3O)c(O)cc2o1
inactive

Okay, and CC(C)=CCOc1cc2oc(=O)ccc2cc1O ?
active

* * *

Catalogue of normalized growth readings, one per entry.
Assay: chemical genetic growth profiling, strain panel (AID 1159580)
Details: S. cerevisiae deletion strains, growth OD, locus YJR016C, strain ILV3, hits give low values
Hit rate of the full screen: of about 5,500 compounds, about 2,000 (36%) were called active. Roughly 18% stayed inconclusive and do not appear here. The list shows a part of the results.
Lab note: record just the number, no unit beside it.

Example entries begin here.
molecule	measured-number
Cc1nn(Cc2cccc(C(=O)O/N=C(/N)c3ccc(Cl)cc3)c2)c(C)c1Br	0.977
Oc1ccc(-n2nnnc2SCc2ccc(OC(F)(F)F)cc2)cc1	0.977
N/C(=N/OC(=O)c1ccccc1Cl)c1cccc(CS(=O)(=O)c2ccc(Cl)cc2)c1	0.999
O=C(Oc1ccc(C2SCCS2)cc1)c1cccs1	1
Fc1ccc(Nc2nc(-c3ccc(F)c(F)c3)cs2)c(F)c1	0.0878

What value of normalized growth has been recorded for this entry: N/C(=N/OC(=O)c1ccccc1Cl)c1ccc2nonc2c1
0.966

* * *

Test: chemical genetic growth profiling, strain panel (AID 1159580)
Details: S. cerevisiae deletion strains, growth OD, locus YOR070C, strain gyp1, hits give low values
Hit rate of the full screen: of about 5,500 compounds, about 2,000 (36%) were called active. Not shown: some 18% with an inconclusive outcome. The list shows a part of the results.
measured-property: normalized growth
Lab note: record just the number, no unit beside it.

molecule	normalized growth
COc1cc(OC)c(C(C)=O)c(O)c1C	0.937
O=C(O)c1cc2cc(Cl)ccc2[nH]1	0.986
COc1c(O)cc(O)cc1O	1.02
c1coc(CNc2ncnc3nc[nH]c23)c1	1
OCCN1CCN(CCCN2c3ccccc3Sc3ccc(Cl)cc32)CC1	0.994
COc1cc(OC)c2c(c1Cl)OC1(C2=O)C(O)=CC(=O)CC1C (centres undefined)	1.02

What value of normalized growth has been recorded for this entry: CC1(C)C[C@@H]2C(=O)CC[C@H]3O[C@]3(C)CC[C@H]21
1.02

Okay, and Nc1ncnc2c1ncn2[C@@H]1O[C@H](CO)[C@@H](O)[C@@H]1O ?
1.02

Okay, and O=c1[nH]cnc2nc[nH]c12 ?
1.01

* * *

Experiment: chemical genetic growth profiling, strain panel (AID 1159580)
Conditions: S. cerevisiae deletion strains, growth OD, locus YGL227W, strain vid30
Hit rate of the full screen: of about 5,500 compounds, about 2,000 (36%) were called active. Roughly 18% stayed inconclusive and do not appear here. No stated cut-off is given here; in the data, active means normalized growth mostly below about 0.91 (no sharp cut-off); inconclusive means no clear call, values can overlap the other calls; inactive means mostly above about 0.92. The list shows a part of the results.
Assign a class; possible classes are active, inactive

The following molecules have reported results that may help.
molecule	group
COc1cc(OC)c(C(C)=O)c(O)c1C	active
OC[C@@H](O)C(O[C@@H]1O[C@H](CO)[C@H](O)[C@H](O)[C@H]1O)[C@H](O)[C@@H](O)CO (stereo partly drawn)	inactive

Note: attention shifts to another entry.
Recorded test call requested for COc1c(O)cc(O)cc1O
inactive

* * *

Catalogue of normalized growth readings, one per entry.
Test: chemical genetic growth profiling, strain panel (AID 1159580);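 also: tested at 20 µM; growth read once vehicle control cultures reached saturation at 30 °C; 1 = growth at the plate median or of vehicle wells; lower values mean less growth of the strain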
Settings: S. cerevisiae deletion strains, growth OD, locus YGL173C, strain kem1, hits give low values
Out of some 5,500 compounds screened, about 2,000 (36%) were called active. About 18% were inconclusive and are not listed. This is one part of the list.
Lab note: record just the number, no unit beside it.

molecule	measured-number
COc1cc2c(cc1-c1coc3c4c(c(OC)cc3c1=O)OC(C)(C)C=C4)OCO2	1
COc1ccc2c(=O)c(CC(=O)O)coc2c1	0.982
CC(=O)OC1CCC2C3CCc4cc(O)ccc4C3CCC12C (stereo not given)	0.991

What value of normalized growth has been recorded for this entry: COc1ccc2c(=O)c(-c3cc4c(cc3OC)OCO4)coc2c1
1

Okay, and C[C@]12CCC3c4ccc(O)cc4CCC3C1CC[C@@H]2OC(=O)CCC1CCCC1 (stereo not given in full) ?
1.02

Okay, and C[N+]1(C)CCc2cc3c(cc2[C@H]1C1OC(=O)c2c1ccc1c2OCO1)OCO3 (stereo not given in full) ?
1.01

Okay, and c1coc(CNc2ncnc3nc[nH]c23)c1 ?
0.993

Okay, and COc1ccc2c(c1)[nH]c1c(C)nccc12 ?
0.999

Okay, and CC1(C)C=Cc2c(cc3occ(-c4ccc5c(c4)OCO5)c(=O)c3c2O)O1 ?
0.817

Okay, and Nc1ncnc2nc[nH]c12 ?
0.984

Okay, and O=c1[nH]cnc2nc[nH]c12 ?
1.03

Okay, and CC(=O)OCC(=O)[C@@]1(O)CCC2C3CCC4=CC(=O)CC[C@]4(C)[C@@]3(F)[C@@H](O)C[C@@]21C (stereo not given in full) ?
1.02

Okay, and COC(=O)C[C@H]1C(C)(C)[C@@H](OC(C)=O)[C@@H]2CC3C4CC(=O)O[C@@H](c5ccoc5)[C@]4(C)CCC3[C@@]1(C)C2=O (stereo not given in full) ?
1.02

Okay, and CC(=O)O[C@H]1CC2CCC3C(CC[C@@]4(C)C3C[C@H]([N+]3(C)CCCCC3)[C@@H]4OC(C)=O)[C@@]2(C)C[C@@H]1[N+]1(C)CCCCC1 (stereo not given in full) ?
1.03

Okay, and CCC(=O)O[C@H]1CCC2C3CCc4cc(O)ccc4C3CC[C@@]21C (stereo not given in full) ?
0.986

Okay, and CCCc1nc(C(C)(C)O)c(C(=O)OCc2oc(=O)oc2C)n1Cc1ccc(-c2ccccc2-c2nn[nH]n2)cc1 ?
0.985

* * *

Test: chemical genetic growth profiling, strain panel (AID 1159580);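 also: tested at 20 µM; growth read once vehicle control cultures reached saturation at 30 °C; 1 = growth at the plate median or of vehicle wells; lower values mean less growth of the strain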
Conditions: S. cerevisiae deletion strains, growth OD, locus YDR363W, strain ESC2, hits give low values
Among all 5,500 compounds or so, about 2,000 (36%) were called active. About 18% were inconclusive and are not listed. This is one part of the list.
measured-property: normalized growth
Lab note: record just the number, no unit beside it.

What value of normalized growth has been recorded for this entry: CCCN(CCC)[C@H]1CCc2c(F)ccc(O)c2C1
1.01

Okay, and CC12CCC3C(CCC4=C(O)C(=O)CCC43C)C1CCC2=O (stereo unspecified) ?
0.984

Okay, and C[C@]12CC[C@@H](O)CC1CC[C@@H]1[C@@H]2CC[C@]2(C)C(=O)CC[C@@H]12 (stereo partly specified) ?
0.938

Okay, and NCCS ?
1.03

Okay, and O=C(O)CNC(=O)C(CS)Cc1ccccc1 (stereo unspecified) ?
1.01

Okay, and CC(=O)[C@H]1CC[C@H]2[C@@H]3CC[C@H]4C[C@H](O)CC[C@]4(C)[C@H]3C(=O)C[C@]12C ?
0.983

* * *

Catalogue of normalized growth readings, one per entry.
Assay: chemical genetic growth profiling, strain panel (AID 1159580);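 also: tested at 20 µM; growth read once vehicle control cultures reached saturation at 30 °C; 1 = growth at the plate median or of vehicle wells; lower values mean less growth of the strain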
Details: S. cerevisiae deletion strains, growth OD, locus YFR010W, strain ubp6, hits give low values
In all, about 5,500 compounds went through this assay and about 2,000 (36%) were called active. Not shown: some 18% with an inconclusive outcome. Some of the results follow.
Lab note: record just the number, no unit beside it.

Example entries begin here.
compound	measured-property	measured-number
CC(C)=CCC/C(C)=C/COc1ccc2ccc(=O)oc2c1	normalized growth	1
COc1cc(O)c(C(=O)O)c(O)c1	normalized growth	1.01
O=C1c2ccccc2C(=O)c2c1ccc(O)c2O	normalized growth	0.557
CCNc1nc(Cl)nc(NC(C)C)n1	normalized growth	1.01
FC(F)(F)COCC(F)(F)F	normalized growth	0.999

What value of normalized growth has been recorded for this entry: CN1Cc2c(N)cccc2C(c2ccccc2)C1 (stereo not given)
1.03

Okay, and CC(C)CCCC(C)[C@H]1CCC2C3CC[C@H]4CC(=O)CC[C@]4(C)C3CC[C@@]21C (stereo not given in full) ?
0.969

Okay, and O=c1ccc2cc(O[C@@H]3O[C@H](CO)[C@@H](O)[C@H](O)[C@H]3O)c(O)cc2o1 ?
0.974

Okay, and CC(C(=O)O)c1ccc(N2Cc3ccccc3C2=O)cc1 (stereo not given) ?
1
